Measured inhibition of individual entries
- Organism: Homo sapiens
- assay_summary: Inhibition of […] urease using urea as substrate at 0.1 uM preincubated for 5 min before substrate addition measured after 10 min relative to control

- compound: "C=CCNC(=S)N/N=C1\\C(=O)Nc2ccc([N+](=O)[O-])cc21"
  inhibition: "15%"
- compound: "COc1ccc(NC(=S)N/N=C2\\C(=O)Nc3ccc([N+](=O)[O-])cc32)c(OC)c1"
  inhibition: "66.8%"
- compound: "O=C1Nc2ccc([N+](=O)[O-])cc2/C1=N/NC(=S)Nc1ccc(I)cc1"
  inhibition: "51%"
- compound: "Cc1cccc(NC(=S)N/N=C2\\C(=O)Nc3ccc([N+](=O)[O-])cc32)c1"
  inhibition: "5.8%"
- compound: "COc1ccc(OC)c(NC(=S)N/N=C2\\C(=O)Nc3ccc([N+](=O)[O-])cc32)c1"
  inhibition: "25.9%"
- compound: "O=C1Nc2ccc([N+](=O)[O-])cc2/C1=N/NC(=S)Nc1ccccc1C(F)(F)F"
  inhibition: "23%"
- compound: "CCCCCCNC(=S)N/N=C1\\C(=O)Nc2ccc([N+](=O)[O-])cc21"
  inhibition: "58%"
- compound: "N#Cc1cccc(NC(=S)N/N=C2\\C(=O)Nc3ccc([N+](=O)[O-])cc32)c1"
  inhibition: "16%"
- compound: "NC(N)=S [THIOUREA]"
  inhibition: "14.5%"

---

Measured inhibition accompanies every entry in the list below.
- Species: Homo sapiens
- assay_summary: Inhibition of […] urease using urea as substrate at 0.01 uM preincubated for 5 min before substrate addition measured after 10 min relative to control

- structure_notation: "COc1ccc(OC)c(NC(=S)N/N=C2\\C(=O)Nc3ccc([N+](=O)[O-])cc32)c1"
  inhibition, %: 34.5
- structure_notation: "O=C1Nc2ccc([N+](=O)[O-])cc2/C1=N/NC(=S)Nc1ccccc1C(F)(F)F"
  inhibition, %: 21.6
- structure_notation: "N#Cc1cccc(NC(=S)N/N=C2\\C(=O)Nc3ccc([N+](=O)[O-])cc32)c1"
  inhibition, %: 20.7
- structure_notation: "COc1ccc(NC(=S)N/N=C2\\C(=O)Nc3ccc([N+](=O)[O-])cc32)c(OC)c1"
  inhibition, %: 68
- structure_notation: "O=C1Nc2ccc([N+](=O)[O-])cc2/C1=N/NC(=S)Nc1ccccc1"
  inhibition, %: 8.8
- structure_notation: "COc1ccc(NC(=S)N/N=C2\\C(=O)Nc3ccc([N+](=O)[O-])cc32)cc1"
  inhibition, %: 47.6
- structure_notation: "Cc1cccc(NC(=S)N/N=C2\\C(=O)Nc3ccc([N+](=O)[O-])cc32)c1"
  inhibition, %: 6.5
- structure_notation: "C=CCNC(=S)N/N=C1\\C(=O)Nc2ccc([N+](=O)[O-])cc21"
  inhibition, %: 21.6
- structure_notation: "CCCCCCNC(=S)N/N=C1\\C(=O)Nc2ccc([N+](=O)[O-])cc21"
  inhibition, %: 60
- structure_notation: "NC(N)=S"
  inhibition, %: 8.16
- structure_notation: "O=C1Nc2ccc([N+](=O)[O-])cc2/C1=N/NC(=S)Nc1ccc(I)cc1"
  inhibition, %: 57
- structure_notation: "Cc1ccc(NC(=S)N/N=C2\\C(=O)Nc3ccc([N+](=O)[O-])cc32)cc1"
  inhibition, %: 8
- structure_notation: "O=C1Nc2ccc([N+](=O)[O-])cc2/C1=N/NC(=S)Nc1ccc(Br)cc1"
  inhibition, %: 18.9

---

- Test system: Candida albicans
- assay_summary: Antifungal activity against Candida albicans at 200 ug/ml after 7 days
- Type: functional
- cond: 168 h
endpoint_name: inhibition at 200 µg/mL (%)

- structure_notation: "O=C1Nc2ccc([N+](=O)[O-])cc2/C1=N/NC(=S)Nc1ccccc1C(F)(F)F"
  experimental_value: 0
- structure_notation: "O=C1Nc2ccc([N+](=O)[O-])cc2/C1=N/NC(=S)Nc1ccc(Br)cc1"
  experimental_value: 0
- structure_notation: "Cc1ccc(NC(=S)N/N=C2\\C(=O)Nc3ccc([N+](=O)[O-])cc32)cc1"
  experimental_value: 0

---

Reported inhibition by item:
- Organism: Homo sapiens
- assay_summary: Inhibition of […] urease using urea as substrate at 100 uM preincubated for 5 min before substrate addition measured after 10 min relative to control

- molecule: "COc1ccc(OC)c(NC(=S)N/N=C2\\C(=O)Nc3ccc([N+](=O)[O-])cc32)c1"
  inhibition: "11%"
- molecule: "C=CCNC(=S)N/N=C1\\C(=O)Nc2ccc([N+](=O)[O-])cc21"
  inhibition: "15.9%"
- molecule: "CCCCCCNC(=S)N/N=C1\\C(=O)Nc2ccc([N+](=O)[O-])cc21"
  inhibition: "40.9%"
- molecule: "COc1ccc(NC(=S)N/N=C2\\C(=O)Nc3ccc([N+](=O)[O-])cc32)cc1"
  inhibition: "46.6%"
- molecule: "O=C1Nc2ccc([N+](=O)[O-])cc2/C1=N/NC(=S)Nc1ccc(Br)cc1"
  inhibition: "4%"
- molecule: "Cc1cccc(NC(=S)N/N=C2\\C(=O)Nc3ccc([N+](=O)[O-])cc32)c1"
  inhibition: "34%"
- molecule: "O=C1Nc2ccc([N+](=O)[O-])cc2/C1=N/NC(=S)Nc1ccccc1"
  inhibition: "6%"
- molecule: "NC(N)=S [THIOUREA]"
  inhibition: "94.3%"
- molecule: "N#Cc1cccc(NC(=S)N/N=C2\\C(=O)Nc3ccc([N+](=O)[O-])cc32)c1"
  inhibition: "8.9%"
- molecule: "COc1ccc(NC(=S)N/N=C2\\C(=O)Nc3ccc([N+](=O)[O-])cc32)c(OC)c1"
  inhibition: "37.9%"
- molecule: "O=C1Nc2ccc([N+](=O)[O-])cc2/C1=N/NC(=S)Nc1ccc(I)cc1"
  inhibition: "50%"
- molecule: "O=C1Nc2ccc([N+](=O)[O-])cc2/C1=N/NC(=S)Nc1ccccc1C(F)(F)F"
  inhibition: "21%"
- molecule: "Cc1ccc(NC(=S)N/N=C2\\C(=O)Nc3ccc([N+](=O)[O-])cc32)cc1"
  inhibition: "7%"

---

- System: Lemna aequinoctialis
- assay_summary: Phytotoxicity against Lemna aequinoctialis assessed as growth inhibition at 100 ug/ml
- Format: functional
- cond: read-out: GI
Assign class by inhibition of growth at 100 µg/mL: not lower than 20% means rule met; lower than 20% means rule not met.

- structure_notation: "COc1ccc(NC(=S)N/N=C2\\C(=O)Nc3ccc([N+](=O)[O-])cc32)c(OC)c1"
  tested_on: "Lemna aequinoctialis"
  group: "rule met"
- structure_notation: "O=C1Nc2ccc([N+](=O)[O-])cc2/C1=N/NC(=S)Nc1ccc(Br)cc1"
  tested_on: "Lemna aequinoctialis"
  group: "rule not met"
- structure_notation: "O=C1Nc2ccc([N+](=O)[O-])cc2/C1=N/NC(=S)Nc1ccccc1C(F)(F)F"
  tested_on: "Lemna aequinoctialis"
  group: "rule not met"
- structure_notation: "COc1ccc(OC)c(NC(=S)N/N=C2\\C(=O)Nc3ccc([N+](=O)[O-])cc32)c1"
  tested_on: "Lemna aequinoctialis"
  group: "rule met"
- structure_notation: "COc1ccc(NC(=S)N/N=C2\\C(=O)Nc3ccc([N+](=O)[O-])cc32)cc1"
  tested_on: "Lemna aequinoctialis"
  group: "rule not met"
- structure_notation: "O=C1Nc2ccc([N+](=O)[O-])cc2/C1=N/NC(=S)Nc1ccc(I)cc1"
  tested_on: "Lemna aequinoctialis"
  group: "rule not met"
- structure_notation: "N#Cc1cccc(NC(=S)N/N=C2\\C(=O)Nc3ccc([N+](=O)[O-])cc32)c1"
  tested_on: "Lemna aequinoctialis"
  group: "rule not met"

---

- assay_summary: Toxicity inArtemia salina (brine shrimp) larvae assessed as mortality after 24 hr
- Format: organism-based
- cond: artemia salina, in vivo; read-out: LD50
# LC50 at 24 h annotations

- structure_notation: "N#Cc1cccc(NC(=S)N/N=C2\\C(=O)Nc3ccc([N+](=O)[O-])cc32)c1"
  LC50 at 24 h: "1.16 mM"
- structure_notation: "COc1ccc(NC(=S)N/N=C2\\C(=O)Nc3ccc([N+](=O)[O-])cc32)cc1"
  LC50 at 24 h: "> 1.34 mM"
- structure_notation: "C=CCNC(=S)N/N=C1\\C(=O)Nc2ccc([N+](=O)[O-])cc21"
  LC50 at 24 h: "> 1.63 mM"

---

Let's look at some compounds and their measured inhibition.
- Species: Homo sapiens
- assay_summary: Inhibition of […] urease using urea as substrate at 1 uM preincubated for 5 min before substrate addition measured after 10 min relative to control

- structure_notation: "O=C1Nc2ccc([N+](=O)[O-])cc2/C1=N/NC(=S)Nc1ccc(I)cc1"
  unit_info: "%"
  inhibition: 52
- structure_notation: "Cc1ccc(NC(=S)N/N=C2\\C(=O)Nc3ccc([N+](=O)[O-])cc32)cc1"
  unit_info: "%"
  inhibition: 4
- structure_notation: "O=C1Nc2ccc([N+](=O)[O-])cc2/C1=N/NC(=S)Nc1ccccc1C(F)(F)F"
  unit_info: "%"
  inhibition: 30.9

meta.source: ChEMBL document CHEMBL3045203
